measured_target: human GLP-1 receptor (human, UniProt P43220 24-463)
assay_info: cell-based or functional assay
*1 amine or outer side, *2 acyl side, *3 side chain or, on linkers, in order; H or OH if unused. Where no end group is shown, it is not given here. Side-chain parts run from the residue outwards. [ ]: non-standard residue; d: D form. The star is where a group is joined. C20 diacid = O=C(O)CCCCCCCCCCCCCCCCCCC(=O)*; C18 diacid = O=C(O)CCCCCCCCCCCCCCCCC(=O)*; γGlu = O=C(O)[C@H](CCC(=O)[*:2])N[*:1]; εLys = N[C@@H](CCCCN[*:1])C(=O)[*:2]; Aib = CC(C)(N)C(=O)O
Exercise: for every item that follows, state its recorded EC50, CreLuc reporter, 0.5% hP.
Answers are plain numbers, in nM.

Y[Aib]EGTFTSDYSI[Aib]LEKQAQ[Aib]AFVRHLINK([γGlu-γGlu-εLys-γGlu-γGlu-γGlu-γGlu-C20 diacid])[Aib]TRQRY-NH2 [Compound 52] | 3.3

**Query** EC50, CreLuc reporter, 0.5% hP lookup needed for Y[Aib]EGTFTSDYSI[Aib]LEKQAQ[Aib]AFVRHLINK([γGlu-γGlu-γGlu-γGlu-γGlu-γGlu-C18 diacid])LTRQRY-NH2 [Compound 12] , thanks.
**Result** 1.8
